Molecular target: UniProtKB P05181
Assay: in vitro
Conditions: pH 7.4, Inhibition of CYP 2E1 (%), tested concentration 16.5 μM
reported.endpoint: inhibition at 40 min, 16.5 µM (%)
Respond with the bare value in %.

O=C(CCc1ccc(O)cc1)c1c(O)cc(O)cc1O[C@@H]1O[C@H](CO)[C@@H](O)[C@H](O)[C@H]1O [Phloridzin]: 1.25

# next molecule below
Q: I'd like to know its inhibition at 40 min, 16.5 µM. The molecule in question is O=c1ccc2ccc(O)cc2o1 [Umbelliferone]
Result: -280

---

Target: CYP2E1 (Homo sapiens, UniProt P05181)
Sequence (P05181 whole entry): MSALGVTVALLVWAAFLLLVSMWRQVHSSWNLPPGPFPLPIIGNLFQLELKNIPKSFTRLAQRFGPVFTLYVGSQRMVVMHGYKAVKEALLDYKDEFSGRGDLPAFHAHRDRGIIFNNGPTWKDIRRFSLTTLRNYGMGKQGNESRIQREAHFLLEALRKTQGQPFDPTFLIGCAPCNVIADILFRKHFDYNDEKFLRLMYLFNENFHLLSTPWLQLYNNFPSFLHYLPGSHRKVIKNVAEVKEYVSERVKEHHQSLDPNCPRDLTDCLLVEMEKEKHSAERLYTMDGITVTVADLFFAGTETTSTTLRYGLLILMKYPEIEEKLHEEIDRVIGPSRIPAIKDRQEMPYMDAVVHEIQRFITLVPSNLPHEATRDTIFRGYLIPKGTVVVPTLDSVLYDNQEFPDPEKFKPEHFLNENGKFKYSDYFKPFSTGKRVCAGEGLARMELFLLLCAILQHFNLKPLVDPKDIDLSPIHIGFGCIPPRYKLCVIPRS
Test: in vitro
Details: pH 7.4, Inhibition of CYP 2E1 (%), DDTC 2.47 μM
reported.endpoint: inhibition at 40 min, 2.47 μM

Q: I'd like to know its inhibition at 40 min, 2.47 μM. The compound in question is CCN(CC)C(=S)S [DDTC, Diethyldithiocarbamic acid]
Result: 75.1%

Cited source for all entries: patent US8304394B2
